Just for reference, PubChem BioAssay (NCATS) is where these values come from.

test-details: qHTS drug screen for cell cycle checkpoint inhibitors in PARPi-resistant BRCA-mutant ovarian cancer cell lines. (AID 1963452)
test-context: PEO1/OlaR viability, CellTiter-Glo luminescence, 96 h; measured here: PEO4 Z-AUC; stronger effect = lower value
Each record is given Yes if its reported Z-AUC is strictly below 0.8. Records at or above 0.8 are given No.

Some entries whose results are on file:
>>> df
                      smiles_representation  qualitative_label
0  CN(C)C(=O)c1ccc(S(=O)(=O)c2ccc(NC(=O)[C@@](C)(O)C(F)(F)F)c(Cl)c2)cc1                Yes
1                         NCCc1ccc(O)c(O)c1                 No
2  CC(C)(C)OC(=O)CN(Cc1ccc(Cl)cc1)Cc1ccc([N+](=O)[O-])s1                Yes
3  COCCNCCCn1c(C(=O)CF)c(-c2ccc(C)cc2)c2c(N)ncnc21                 No
4  CCCn1c(=O)c2[nH]c(C34CC5CC3C[C@@H](C5)C4)nc2n(CCC)c1=O                Yes

Record COc1ccc(CCN2CCN(CCCc3ccccc3)CC2)cc1OC : is its Z-AUC strictly below 0.8?
Yes
